- Test system: Avian myeloblastosis virus
- Protocol summary: Inhibition of AMV reverse transcriptase activity assessed as incorporation of dGMP in poly(rC)-oligo(dG) at 10 uM
- Design: scale not given: the % may be the effect or the level left
Readout name: Activity (%)
Hi! Could you send only the number? It should be in %, unit omitted.

Request: Report Activity for O=C1O[C@@H]2[C@@H](OC(=O)c3cc(O)c(O)c(O)c3-c3c1cc(O)c(O)c3O)[C@H](O)O[C@@H]1COC(=O)c3cc(O)c(O)c(O)c3-c3c(O)c(O)c4oc(=O)c5c(c(O)c(O)c6oc(=O)c3c4c65)-c3c(cc(O)c(O)c3O)C(=O)O[C@@H]21 please.
Result: 18

Request: Now the compound O=c1oc2c(O)c(O)cc3c(=O)oc4c(O)c(O)cc1c4c23
Result: 49

Request: Same for O=C(O[C@@H]1O[C@@H]2COC(=O)c3cc(O)c(O)c(O)c3-c3c(cc(O)c(O)c3O)C(=O)O[C@H]([C@H]1O)[C@@H]2O)c1cc(O)c(O)c(O)c1
Result: 64

Request: Entry to check: O=C[C@H](OC(=O)c1cc(O)c(O)c(O)c1)[C@@H](OC(=O)c1cc(O)c(O)c(O)c1)[C@@H]1OC(=O)c2cc(O)c(O)c(O)c2-c2c(cc(Oc3c(C(=O)O[C@@H](C=O)[C@@H](OC(=O)c4cc(O)c(O)c(O)c4)[C@@H]4OC(=O)c5cc(O)c(O)c(O)c5-c5c(cc(O)c(O)c5O)C(=O)OC[C@H]4O)cc(O)c(O)c3O)c(O)c2O)C(=O)OC[C@H]1O
Result: 22
